experiment: RP, Waters ACQUITY UPLC BEH C18, 100 × 2.1 mm, 1.7 µm, 0.1 mL/min, estimated dead time 2.2 min; A: water + 0.045% formic acid + 0.11% ammonium hydroxide, pH 7; B: methanol; gradient (min/%B) 0/5 5/5 25/95 25.1/100 35/100 35.1/5 45/5; details: stereoisomer not certain
LC retention time below 20 min gives f; LC retention time at or above it gives t.

Cn1c(=O)c2c(ncn2C)n(C)c1=O    f
CC(=O)N[C@@H](Cc1ccccc1)C(=O)O    f
CCOC(=O)Cc1c[nH]c2ccccc12 [ETHYL 3-INDOLEACETATE]    t
CSc1ncnc2nc[nH]c12    f
CCCCCCC=CCCCCCCCC(=O)O    t
O=CCc1c[nH]c2ccccc12    f
CC1C(=O)Nc2ccccc21 (stereo not drawn)    f

###

test: RP, Waters ACQUITY UPLC BEH C18, 100 × 2.1 mm, 1.7 µm, 0.1 mL/min, estimated dead time 2.2 min; A: water + 0.1% formic acid, pH 3; B: methanol + 0.1% formic acid, pH 3; gradient (min/%B) 0/5 5/5 25/95 25.1/100 35/100 35.1/5 45/5; conditions: stereoisomer not certain
Sorting guide: entries reporting LC retention time beneath 20 min go in the Met pile, the rest go in the Not met pile.

CSc1ncnc2nc[nH]c12 [THIOPURINE S-METHYLETHER]    Met
NC(=O)C1CCCN1C(=O)C(Cc1cnc[nH]1)NC(=O)C1CCC(=O)N1 (configuration not stated) [THYROTROPIN RELEASING HORMONE]    Met
c1ncc2[nH]cnc2n1 [PURINE]    Met
Cn1c(=O)c2c(ncn2C)n(C)c1=O [CAFFEINE]    Met
CC1C(=O)Nc2ccccc21 (configuration not stated) [3-METHYL-2-OXINDOLE]    Met
CCC(NC(=O)CCC(N)C(=O)O)C(=O)NCC(=O)O (configuration not stated) [OPHTHALMIC ACID]    Met
CCCCCCCCCCCCCCCC(O)C(N)CO (configuration not stated) [SPHINGANINE]    Not met
Cc1cc2nc3c(=O)[nH]c(=O)nc-3n(CC(O)C(O)C(O)CO)c2cc1C (configuration not stated) [RIBOFLAVIN]    Met
CCCCCCCCCCCC(=O)OC(CC(=O)[O-])C[N+](C)(C)C (configuration not stated) [LAUROYLCARNITINE]    Not met
CCCCCCSCC(NC(=O)CCC(N)C(=O)O)C(=O)NCC(=O)O (configuration not stated) [S-HEXYL-GLUTATHIONE]    Not met
CSCC1OC(n2cnc3c(N)ncnc32)C(O)C1O (configuration not stated) [5'-METHYLTHIOADENOSINE]    Met

###

Attribute: LC retention time
assay: RP, Waters ACQUITY UPLC BEH C18, 100 × 2.1 mm, 1.7 µm, 0.2 mL/min, estimated dead time 1.1 min; A: water + 0.025% formic acid + 20 mM ammonium acetate + 0.055% ammonium hydroxide, pH 7; B: methanol; gradient (min/%B) 0/5 5/5 25/100 30/100 30.1/5 35/5; conditions: stereoisomer not certain
readout-label: LC retention time

Cn1cncc1CCN [3-METHYLHISTAMINE]    1.81 min
CC12CCC(=O)C=C1CCC1C2C(=O)CC2(C)C1CCC2(O)C(=O)CO (configuration not stated) [CORTISONE]    17.6 min
NC(N)=NCCCC(=O)O [4-GUANIDINOBUTANOATE]    1.39 min
CN(CC(=O)O)C(=N)N [CREATINE]    1.35 min
Cn1cncc1CC(N)C(=O)O [N(PAI)-METHYL-L-HISTIDINE]    1.88 min
CCC=CCC1C(=O)CCC1CC(=O)OC (configuration not stated) [METHYL JASMONATE]    20 min
CSCC1OC(n2cnc3c(N)ncnc32)C(O)C1O (configuration not stated) [5'-METHYLTHIOADENOSINE]    12.1 min
CC(=O)NCCCCN [N-ACETYLPUTRESCINE]    1.39 min
NCCc1cnc[nH]1 [HISTAMINE]    1.44 min
NCCCCN=C(N)N [AGMATINE]    1.44 min
N[C@H](CO)Cc1cnc[nH]1 [L-HISTIDINOL]    1.79 min
C=Cc1c(C)c2cc3[nH]c(cc4nc(cc5nc(cc1[nH]2)C(C)=C5CCC(=O)O)C(CCC(=O)O)=C4C)c(C)c3C=C [PROTOPORPHYRIN]    25.4 min
Cn1c(=O)c2c(ncn2C)n(C)c1=O [CAFFEINE]    11.3 min
CN1CCC[C@H]1c1cccnc1 [(S)-NICOTINE]    11.2 min
CCCCCCCCCCCC(=O)OC(CC(=O)[O-])C[N+](C)(C)C (configuration not stated) [LAUROYLCARNITINE]    22.8 min
c1ncc2[nH]cnc2n1 [PURINE]    3.15 min
O=c1cccc[nH]1 [2-HYDROXYPYRIDINE]    3.24 min
Cc1ncc(C[n+]2csc(CCOP(=O)(O)O)c2C)c(N)n1 [THIAMINE MONOPHOSPHATE]    1.42 min
CC1NC(=O)NC1CCCCCC(=O)O (configuration not stated) [DETHIOBIOTIN]    9.58 min
CN=C(N)N [METHYLGUANIDINE]    1.39 min
O=C(O)c1cc(=O)c2ccccc2[nH]1 [4-HYDROXY-2-QUINOLINECARBOXYLIC ACID]    8.26 min
NC(=O)Cc1c[nH]c2ccccc12 [INDOLE-3-ACETAMIDE]    11.9 min
